Sourced from ChEMBL document CHEMBL1201862

- Tested on: U-251
- test_method_notes: NCI tumour cell line growth inhibition, 48 h
Calls of active or inactive are those of the source. No stated cut-off is given here; in the data, active = GI50 up to about 1.1 µM and inactive = higher.
Log the outcome using a class from active, inactive

compound | classification
CO[C@@H](C(=O)OC1C=CC2(CC1)C(=O)N(C)c1ccccc12)c1ccccc1 (some centres not stated) | inactive
CC1(C)C2CCC1C(=O)C(C=O)C2 (configuration not stated) | inactive
Clc1ccc(CSc2ncnc3c2ncn3C2CCCCO2)cc1 (configuration not stated) | inactive
COc1nc(C#CCC(C)O)nc(OC)n1 (configuration not stated) | inactive
N#C/C(=C\c1cccc(Cl)c1Cl)c1ccccc1 | inactive

Tell me the assay call for CC1OC(O)C(O)C(O)C1O (configuration not stated) please.
inactive

Tell me the assay call for Oc1ccc(Cc2nccc3cc(O)c(O)cc23)cc1O please.
inactive

Tell me the assay call for CC(=O)c1cc2c(s1)C(=O)c1ccsc1C2=O please.
active

Tell me the assay call for CCOC(=O)c1[nH]cc(C)c1-c1cccn1-c1ccc(Cl)cc1[N+](=O)[O-] please.
inactive

Tell me the assay call for CCOC(=O)c1oc2ccc(OC)c3c2c1CCC3 please.
inactive

Tell me the assay call for COC(=O)c1ccccc1Nc1nc(-c2cccs2)nc2cc(OC)c(OC)cc12 please.
inactive

Tell me the assay call for CCCC[C@H]1CCN2C[C@@H](O)[C@@H](O)[C@H]2[C@@H]1O please.
inactive
